# PROTOCOL NOTES: xn = mol fraction of the nth substance listed
# CONDITION CONTEXT: 288.15 K; 101 kPa; Liquid; x1 = 0.55
Numbers after ± are expanded uncertainties.

- COMPOUND: "CCCCCC(=O)OCC [ethyl hexanoate] + CCO"
  mass density: "856.51 ± 0.21 kg/m3"
- COMPOUND: "CCCC(=O)OCCC(C)C [3-methylbutyl butanoate] + CCO"
  mass density: "851.61 ± 0.25 kg/m3"
- COMPOUND: "CCCCCCCC(=O)OCC [ethyl octanoate] + CCO"
  mass density: "855.04 ± 0.24 kg/m3"
- COMPOUND: "CCOC(=O)Cc1ccccc1 [ethyl phenylacetate] + CCO"
  mass density: "981.67 ± 0.23 kg/m3"

###

# PROTOCOL NOTES: xn = mol fraction of the nth substance listed
# CONDITION CONTEXT: 318.15 K; 100.5 kPa; Liquid; x1 = 0.2
Overview of recorded viscosity for various compounds

- COMPOUND: "CCOC(=O)Cc1ccccc1 [ethyl phenylacetate] + CCO"
  viscosity / mPa·s: 0.891
- COMPOUND: "CC(=O)OCCC(C)C [3-methylbutyl ethanoate] + CCO"
  viscosity / mPa·s: 0.63
- COMPOUND: "CCCC(=O)OCCC(C)C [3-methylbutyl butanoate] + CCO"
  viscosity / mPa·s: 0.711

###

Entries annotated with measured mass density
# PROTOCOL NOTES: xn = mol fraction of the nth substance listed
# CONDITION CONTEXT: 288.15 K; 101 kPa; Liquid; x1 = 0.3

- COMPOUND: "CCCC(=O)OCCC(C)C [3-methylbutyl butanoate] + CCO"
  READOUT UNITS: "kg/m3"
  mass density: 835.41
- COMPOUND: "CCCCCCCC(=O)OCC [ethyl octanoate] + CCO"
  READOUT UNITS: "kg/m3"
  mass density: 838.69
- COMPOUND: "CCOC(=O)Cc1ccccc1 [ethyl phenylacetate] + CCO"
  READOUT UNITS: "kg/m3"
  mass density: 926.72
- COMPOUND: "CCOC(=O)c1ccccc1 [ethyl benzoate] + CCO"
  READOUT UNITS: "kg/m3"
  mass density: 928.37

###

# PROTOCOL NOTES: xn = mol fraction of the nth substance listed
# CONDITION CONTEXT: 288.15 K; 100.5 kPa; Liquid; x1 = 0.3

- COMPOUND: "CCCC(=O)OCCC(C)C [3-methylbutyl butanoate] + CCO"
  READOUT UNITS: "mPa·s"
  viscosity: 1.167
- COMPOUND: "CCCCCCCC(=O)OCC [ethyl octanoate] + CCO"
  READOUT UNITS: "mPa·s"
  viscosity: 1.356
- COMPOUND: "CC(=O)OCCC(C)C [3-methylbutyl ethanoate] + CCO"
  READOUT UNITS: "mPa·s"
  viscosity: 0.968

###

Recorded viscosity for the following compounds
# CONDITION CONTEXT: 318.15 K; 100.5 kPa; Liquid
Numbers after ± are expanded uncertainties.
PROPERTY NAME: viscosity

- COMPOUND: "CCCC(=O)OCCC(C)C [3-methylbutyl butanoate]"
  PROPERTY NAME: "viscosity"
  ASSAY VALUE: "0.827 ± 0.016 mPa·s"
- COMPOUND: "CCOC(=O)Cc1ccccc1 [ethyl phenylacetate]"
  PROPERTY NAME: "viscosity"
  ASSAY VALUE: "1.624 ± 0.022 mPa·s"
- COMPOUND: "CCCCCCCC(=O)OCC [ethyl octanoate]"
  PROPERTY NAME: "viscosity"
  ASSAY VALUE: "1.027 ± 0.017 mPa·s"

###

Listed here: items and their measured viscosity.
# PROTOCOL NOTES: xn = mol fraction of the nth substance listed
# CONDITION CONTEXT: 298.15 K; 100.5 kPa; Liquid; x1 = 0.8
Numbers after ± are expanded uncertainties.
PROPERTY NAME: viscosity

- COMPOUND: "CC(=O)OCCC(C)C [3-methylbutyl ethanoate] + CCO"
  ASSAY VALUE: "0.782 ± 0.015 mPa·s"
- COMPOUND: "CCOC(=O)Cc1ccccc1 [ethyl phenylacetate] + CCO"
  ASSAY VALUE: "2.053 ± 0.025 mPa·s"
- COMPOUND: "CCOC(=O)c1ccccc1 [ethyl benzoate] + CCO"
  ASSAY VALUE: "1.705 ± 0.022 mPa·s"
- COMPOUND: "CCCCCCCC(=O)OCC [ethyl octanoate] + CCO"
  ASSAY VALUE: "1.327 ± 0.019 mPa·s"

###

Attribute: mass density
# PROTOCOL NOTES: xn = mol fraction of the nth substance listed
# CONDITION CONTEXT: 308.15 K; 101 kPa; Liquid; x1 = 0.15
PROPERTY NAME: mass density (kg/m3)

- MOLECULE: "CCOC(=O)Cc1ccccc1 [ethyl phenylacetate] + CCO"
  ASSAY VALUE: 856.49
- MOLECULE: "CCCC(=O)OCCC(C)C [3-methylbutyl butanoate] + CCO"
  ASSAY VALUE: 801.58
- MOLECULE: "CCCCCCCC(=O)OCC [ethyl octanoate] + CCO"
  ASSAY VALUE: 804.39
- MOLECULE: "CCOC(=O)c1ccccc1 [ethyl benzoate] + CCO"
  ASSAY VALUE: 855.84

###

# PROTOCOL NOTES: xn = mol fraction of the nth substance listed
# CONDITION CONTEXT: 308.15 K; 101 kPa; Liquid; x1 = 0.05
Property: mass density; scope: individual compounds

- COMPOUND: "CCCCCC(=O)OCC [ethyl hexanoate] + CCO"
  READOUT UNITS: "kg/m3"
  mass density: 786.59
- COMPOUND: "CCOC(=O)c1ccccc1 [ethyl benzoate] + CCO"
  READOUT UNITS: "kg/m3"
  mass density: 806.92
- COMPOUND: "CCCC(=O)OCCC(C)C [3-methylbutyl butanoate] + CCO"
  READOUT UNITS: "kg/m3"
  mass density: 786.52
- COMPOUND: "CCCCCCCC(=O)OCC [ethyl octanoate] + CCO"
  READOUT UNITS: "kg/m3"
  mass density: 787.73

###

# CONDITION CONTEXT: 318.15 K; 101 kPa; Liquid
The entries below are paired with their reported mass density.
PROPERTY NAME: mass density (kg/m3)

- COMPOUND: "CCCCCCCC(=O)OCC [ethyl octanoate]"
  PROPERTY NAME: "mass density"
  ASSAY VALUE: 844.87
- COMPOUND: "CCCCCC(=O)OCC [ethyl hexanoate]"
  PROPERTY NAME: "mass density"
  ASSAY VALUE: 847.5
- COMPOUND: "CCOC(=O)Cc1ccccc1 [ethyl phenylacetate]"
  PROPERTY NAME: "mass density"
  ASSAY VALUE: 1008.26
- COMPOUND: "CCCC(=O)OCCC(C)C [3-methylbutyl butanoate]"
  PROPERTY NAME: "mass density"
  ASSAY VALUE: 840.55
